Molecular target: T1, PARD3B_1, Q8TEW8
T1 sequence (Q8TEW8 196-299, limits assumed, looked up): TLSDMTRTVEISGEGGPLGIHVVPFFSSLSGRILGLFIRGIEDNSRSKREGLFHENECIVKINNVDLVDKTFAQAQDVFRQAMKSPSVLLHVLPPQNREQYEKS
Assay: holdup assay
Parameters: key: below the threshold = too weak to quantify, mostly under pKd 3.1 to 4
Conditions: plain residues with an end cap or a label only (N-terminal biotin on a linker: ado-ado)

BINDER | pKd
SQPLLVHDDV [KIT, P10721] | below the threshold
PLATCDETSI [SEMA4F, O95754] | below the threshold
KKTPVSRSHL [SLC22A3, O75751] | below the threshold
